Provenance of the data: paper doi:10.1101/2023.04.01.534865v1

A short record of IC50 observed with GST-OSBP(377-807) (Homo sapiens, UniProt P22059) follows.
Sequence (P22059 377-807): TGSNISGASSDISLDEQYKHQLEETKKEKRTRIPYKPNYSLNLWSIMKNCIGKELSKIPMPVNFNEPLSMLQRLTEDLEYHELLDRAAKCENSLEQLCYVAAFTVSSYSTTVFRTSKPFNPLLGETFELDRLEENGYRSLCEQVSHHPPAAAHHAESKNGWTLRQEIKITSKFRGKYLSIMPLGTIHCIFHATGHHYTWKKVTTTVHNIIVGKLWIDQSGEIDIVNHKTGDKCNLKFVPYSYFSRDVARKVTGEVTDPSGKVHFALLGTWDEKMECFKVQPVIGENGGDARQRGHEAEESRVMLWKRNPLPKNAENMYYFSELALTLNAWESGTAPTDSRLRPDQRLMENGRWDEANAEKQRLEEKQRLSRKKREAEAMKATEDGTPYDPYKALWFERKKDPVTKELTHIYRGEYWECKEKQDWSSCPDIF

Form field IC50, entry C[C@H](CCC(=O)NCCCOCCCCOCCCNC(=O)OC(C)(C)C)[C@H]1CC[C@H]2[C@@H]3CC=C4C[C@@H](O)CC[C@]4(C)[C@H]3CC[C@]12C [C3_Boc, oxybipin-2] : 74 nM

Please fill in: IC50 reported for C[C@H](CCC(=O)NCCCOCCCCOCCCNC(=O)CC12CC3CC(CC(C3)C1)C2)[C@H]1CC[C@H]2[C@@H]3CC=C4C[C@@H](O)CC[C@]4(C)[C@H]3CC[C@]12C [C3_HyT, oxybipin-1] = 142 nM
